Biological target: T1, monkey Trop2 protein (Sino Biological, #90893-C08H) (monkey, UniProt A0A2K5UE71 27-274)
T1 construct: bought protein; also called monkey Trop2 protein antigen (His tag)
T1 sequence: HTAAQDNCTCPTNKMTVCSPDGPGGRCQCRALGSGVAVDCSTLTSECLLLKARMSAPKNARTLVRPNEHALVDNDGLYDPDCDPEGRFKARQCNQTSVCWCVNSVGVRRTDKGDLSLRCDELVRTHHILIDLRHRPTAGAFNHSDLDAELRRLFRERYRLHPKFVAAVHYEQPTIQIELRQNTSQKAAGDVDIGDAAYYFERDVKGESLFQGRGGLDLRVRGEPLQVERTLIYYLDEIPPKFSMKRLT
Experiment: BLI, Octet RED96, AHC sensor
readout.label: Response

{"columns": ["binder", "readout.label", "data.value"],
 "data": [
  ["PR001143 (antibody, human IgG1, kappa, V domains shown, fully human IgG1/kappa; also called antibody No. (10)) VH: QVQLVESGGGVVQPGRSLRVSCAASGFIFSTYGMHWVRQAPGKGLEWVAVIWYDGSNEDYVDSVKGRFTISRDNSKNTLYLQMNSLRGEDTAVYYCARGGYNSGWWAFDVWGQGTLVTVSS VL: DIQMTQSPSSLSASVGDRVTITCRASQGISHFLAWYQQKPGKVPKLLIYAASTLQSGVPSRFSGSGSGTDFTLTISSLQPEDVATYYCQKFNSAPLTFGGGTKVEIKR", "Response", 0.308],
  ["PR001153 (antibody, human IgG1, kappa, V domains shown, fully human IgG1/kappa; also called antibody No. (16)) VH: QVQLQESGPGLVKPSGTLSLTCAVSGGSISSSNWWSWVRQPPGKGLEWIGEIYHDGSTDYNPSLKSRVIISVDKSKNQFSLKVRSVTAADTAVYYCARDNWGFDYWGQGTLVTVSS VL: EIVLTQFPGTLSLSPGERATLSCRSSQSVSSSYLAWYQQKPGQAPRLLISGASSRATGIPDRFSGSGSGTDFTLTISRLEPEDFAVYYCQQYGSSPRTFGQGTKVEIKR", "Response", 0.337],
  ["PR001168 (antibody, human IgG1, kappa, V domains shown, fully human IgG1/kappa; also called antibody No. (28)) VH: QVQLVESGGGVVQPGRSLRLSCATSGFIFSSYGMHWVRQAPGKGLDWVAVIWYDGSNKYYADSVKGRFTISRDNSKNTLYLQMNSLRVEDTAVYYCARETSSWYVGYLQHWGQGTLVTVSS VL: EIVMTQSPATLSVSPGERVSLSCRASQSVNGNVAWYQQKPGQAPRLLIYAASTRATGIPARFSGSGSGTESTLTISSLQSEDCAVYYCQQYNNWPSTFGPGTKLEVTR", "Response", 0.311],
  ["PR001150 (antibody, human IgG1, kappa, V domains shown, fully human IgG1/kappa; also called antibody No. (13)) VH: QVQLVESGGGVVQPEKSLRLSCAASGFTFSHYGMHWVRQVPGKGLEWVAVIWYDGIKRYYVESVKGRFTISRDNSKNTLYLQMNRLRAEDTAVYYCARDGGFGESNYYGLDVWGQGTTVTVSS VL: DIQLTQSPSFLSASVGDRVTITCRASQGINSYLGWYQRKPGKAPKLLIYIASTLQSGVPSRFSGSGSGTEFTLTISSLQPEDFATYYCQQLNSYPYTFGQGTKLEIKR", "Response", 0.344],
  ["PR001154 (antibody, human IgG1, kappa, V domains shown, fully human IgG1/kappa; also called antibody No. (17)) VH: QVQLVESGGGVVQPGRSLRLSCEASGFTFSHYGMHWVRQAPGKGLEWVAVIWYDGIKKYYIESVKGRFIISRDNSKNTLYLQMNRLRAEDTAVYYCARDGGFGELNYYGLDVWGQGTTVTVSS VL: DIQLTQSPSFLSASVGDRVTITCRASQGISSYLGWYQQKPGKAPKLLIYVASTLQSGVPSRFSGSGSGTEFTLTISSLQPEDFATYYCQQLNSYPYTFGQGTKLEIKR", "Response", 0.379]
]}
